FYI, the data here is from patent US12703750.

Examples of binders with documented EC50 (read off the curve) follow.
- EXPERIMENTAL_SYSTEM: T1, Human IL13Rα2 (human, UniProt Q14627 27-343, limits assumed)
- T1 construct: also called human recombinant IL13Rα2; Human IL13Ra2
- T1 sequence (looked up): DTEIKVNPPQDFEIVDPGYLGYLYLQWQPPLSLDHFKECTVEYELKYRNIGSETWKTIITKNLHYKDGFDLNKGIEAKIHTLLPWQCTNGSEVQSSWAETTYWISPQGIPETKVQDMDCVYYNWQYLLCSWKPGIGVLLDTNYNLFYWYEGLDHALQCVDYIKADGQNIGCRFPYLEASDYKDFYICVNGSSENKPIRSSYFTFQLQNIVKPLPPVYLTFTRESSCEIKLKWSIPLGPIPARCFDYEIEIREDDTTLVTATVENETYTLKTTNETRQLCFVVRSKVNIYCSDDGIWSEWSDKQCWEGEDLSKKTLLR
- PROCEDURE_SUMMARY: plate ELISA on human recombinant IL13Rα2, OD405, N=4

[[record]]
binder = "Humanized antibody VH1-VL1 Q94E (antibody, human IgG1, kappa, V domains shown) VH: QVQLVQSGAEVKKPGSSVKVSCKASGYTFSNYLMNWVRQAPGQGLEWMGRIDPYDGDIDYNQNFKDRVTITADKSTSTAYMELSSLRSEDTAVYYCARGYGTAYGVDYWGQGTLVTVSS VL: DIVMTQSPDSLAVSLGERATINCRASESVDNYGISFMNWYQQKPGQPPKLLIYAASRQGSGVPDRFSGSGSGTDFTLTISSLQAEDVAVYYCQESKEVPWTFGGGTKLEIKR"
measured_result = "~0.01 µg/mL"


Form field EC50 (read off the curve), entry Humanized antibody VH1 M34A-VL1 (antibody, human IgG1, kappa, V domains shown, Antibody purified on protein A) VH: QVQLVQSGAEVKKPGSSVKVSCKASGYTFSNYLANWVRQAPGQGLEWMGRIDPYDGDIDYNQNFKDRVTITADKSTSTAYMELSSLRSEDTAVYYCARGYGTAYGVDYWGQGTLVTVSS VL: DIVMTQSPDSLAVSLGERATINCRASESVDNYGISFMNWYQQKPGQPPKLLIYAASRQGSGVPDRFSGSGSGTDFTLTISSLQAEDVAVYYCQQSKEVPWTFGGGTKLEIKR : ~0.03 µg/mL

Form field EC50 (read off the curve), entry Humanized antibody VH1 D52E-VL1 (antibody, human IgG1, kappa, V domains shown, also called VH1 MD52E-VL1) VH: QVQLVQSGAEVKKPGSSVKVSCKASGYTFSNYLMNWVRQAPGQGLEWMGRIEPYDGDIDYNQNFKDRVTITADKSTSTAYMELSSLRSEDTAVYYCARGYGTAYGVDYWGQGTLVTVSS VL: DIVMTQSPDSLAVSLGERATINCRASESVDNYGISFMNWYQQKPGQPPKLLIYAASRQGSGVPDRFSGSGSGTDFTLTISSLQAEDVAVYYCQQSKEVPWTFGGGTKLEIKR : ~0.04 µg/mL
